- ASSAY: Pharmacokinetic assay in Balb/C mice
- Format: in vivo
- ASSAY_CONDITIONS: male, mouse, po, p.o. 5 mg/kg, plasma, 0.5% CMC-Na (1% Tween 80), read-out: Average residence time MRT0-∞
Recorded MRT inf values for a group of compounds are listed next.
Please reply with the bare figure in h and do not write the unit itself.

O=C(Cn1c(=O)c2ccc(C(F)(F)F)nc2n2nc(Br)cc12)Nc1ccc(F)cn1: 5.6
O=C(Cn1c(=O)c2ccc(C(F)(F)F)nc2n2nccc12)Nc1ccc(F)cn1: 2.5

Consider the compound N#Cc1cc2n(CC(=O)Nc3ccc(F)cn3)c(=O)c3ccc(C(F)(F)F)nc3n2n1 . State its measured MRT inf.
3.8

Consider the compound CC(C)(C)c1cc2n(CC(=O)Nc3ccc(F)cn3)c(=O)c3ccc(C(F)(F)F)nc3n2n1 . State its measured MRT inf.
2.16

Consider the compound CCc1cc2n(CC(=O)Nc3ccc(F)cn3)c(=O)c3ccc(C(F)(F)F)nc3n2n1 . State its measured MRT inf.
2.3

* * *

- ASSAY: Plasma protein binding rate (dog)
- Format: in vitro ADME
- ASSAY_CONDITIONS: 37° C. 6 h
Recorded fraction unbound at 6 h, 5 μM values for a group of molecules are listed next.
I only need the number, thanks.

Use these answered entries as a reference point.
N#Cc1cnn2c3nc(C(F)(F)F)ccc3c(=O)n(CC(=O)Nc3ccc(F)cn3)c12 [Example 80]: 0.135
O=C(Cn1c(=O)c2ccc(C(F)(F)F)nc2n2nccc12)Nc1ccc(F)cn1 [Example 78]: 0.147
N#Cc1cc2n(CC(=O)Nc3ccc(F)cn3)c(=O)c3ccc(C(F)(F)F)nc3n2n1 [Example 68]: 0.084
CCc1cc2n(CC(=O)Nc3ccc(F)cn3)c(=O)c3ccc(C(F)(F)F)nc3n2n1 [Example 34]: 0.032

Lab note: next molecule to report on.
Consider the molecule O=C(Cn1c(=O)c2ccc(C(F)(F)F)nc2n2nc(Br)cc12)Nc1ccc(F)cn1 [Example 61-A] . State its measured fraction unbound at 6 h, 5 μM.
0.037

* * *

- ASSAY: Plasma protein binding rate (rat)
- Type: in vitro ADME
- ASSAY_CONDITIONS: 37° C. 6 h
Recorded fraction unbound at 6 h, 5 μM values for a group of compounds are listed next.
I only need the number, thanks.

Use these answered entries as a reference point.
O=C(Cn1c(=O)c2ccc(C(F)(F)F)nc2n2nc(Br)cc12)Nc1ccc(F)cn1 [Example 61-A]: 0.027
O=C(Cn1c(=O)c2ccc(C(F)(F)F)nc2n2nccc12)Nc1ccc(F)cn1 [Example 78]: 0.061
CCc1cc2n(CC(=O)Nc3ccc(F)cn3)c(=O)c3ccc(C(F)(F)F)nc3n2n1 [Example 34]: 0.044

Consider the compound N#Cc1cc2n(CC(=O)Nc3ccc(F)cn3)c(=O)c3ccc(C(F)(F)F)nc3n2n1 [Example 68] . State its measured fraction unbound at 6 h, 5 μM.
0.11

Consider the compound N#Cc1cnn2c3nc(C(F)(F)F)ccc3c(=O)n(CC(=O)Nc3ccc(F)cn3)c12 [Example 80] . State its measured fraction unbound at 6 h, 5 μM.
0.234

* * *

- ASSAY: Metabolic stability in liver microsome (rat)
- Assay type: in vitro ADME
- ASSAY_CONDITIONS: rat liver microsome 0.5 mg/mL, compound 1 μM, 60 min
- Experimental: Test Example 5. Assay of Metabolic Stability in Liver Microsome The objective of the experiment is to determine the stability of the compounds of the Examples in liver microsome of mouse, rat, dog and human. Formulation of the working solution of the compound: The stock solution of the compound was added to phosphate buffer, and the final concentration was 20 μM. Liver microsome was diluted with 100 mM phosphate buffer to obtain a final concentration of 0.625 mg/mL. […]
Recorded Remaining (%, 60 min) values for a group of compounds are listed next.
Please reply with the bare figure in % and do not write the unit itself.

O=C(Cn1c(=O)c2ccc(C(F)(F)F)nc2n2nccc12)Nc1ccc(F)cn1 [Example 78]: 98.9
CCc1cc2n(CC(=O)Nc3ccc(F)cn3)c(=O)c3ccc(C(F)(F)F)nc3n2n1 [Example 34]: 104.4
O=C(Cn1c(=O)c2ccc(C(F)(F)F)nc2n2nc(Br)cc12)Nc1ccc(F)cn1 [Example 61-A]: 102.3

Lab note: next compound to report on.
Consider the compound N#Cc1cc2n(CC(=O)Nc3ccc(F)cn3)c(=O)c3ccc(C(F)(F)F)nc3n2n1 [Example 68] . State its measured Remaining (%, 60 min).
106.4

* * *

- ASSAY: Metabolic stability in liver microsome (rat)
- Assay type: in vitro ADME
- ASSAY_CONDITIONS: liver microsomes; rat liver microsome 0.5 mg/mL, compound 1 μM, NADPH/UDPGA
READOUT_LABEL: half-life at 1 μM (h)
Please reply with the bare figure in h and do not write the unit itself.

Use these answered entries as a reference point.
CCc1cc2n(CC(=O)Nc3ccc(F)cn3)c(=O)c3ccc(C(F)(F)F)nc3n2n1 [Example 34]: 28.9
O=C(Cn1c(=O)c2ccc(C(F)(F)F)nc2n2nc(Br)cc12)Nc1ccc(F)cn1 [Example 61-A]: 15.7

Lab note: next compound to report on.
Consider the compound O=C(Cn1c(=O)c2ccc(C(F)(F)F)nc2n2nccc12)Nc1ccc(F)cn1 [Example 78] . State its measured half-life at 1 μM.
32.7

* * *

- ASSAY: Pharmacokinetic assay in rats
- Format: in vivo
- ASSAY_CONDITIONS: male, rat, po; SD rats, p.o. 5 mg/kg, plasma, 0.5% CMC-Na (1% Tween 80); read-out: Half life t1/2 (converted)
Threshold-based label: half-life under 2 h gives yes (1), half-life not under 2 h gives no (0).

Use the examples below as a reference point.
N#Cc1cc2n(CC(=O)Nc3ccc(F)cn3)c(=O)c3ccc(C(F)(F)F)nc3n2n1: yes (1)
N#Cc1cnn2c3nc(C(F)(F)F)ccc3c(=O)n(CC(=O)Nc3ccc(F)cn3)c12: no (0)

Given the entry CCc1cc2n(CC(=O)Nc3ccc(F)cn3)c(=O)c3ccc(C(F)(F)F)nc3n2n1 , would its reported half-life be below 2 h?
no (0)

Given the entry O=C(Cn1c(=O)c2ccc(C(F)(F)F)nc2n2nccc12)Nc1ccc(F)cn1 , would its reported half-life be below 2 h?
yes (1)

Given the entry O=C(Cn1c(=O)c2ccc(C(F)(F)F)nc2n2nc(Br)cc12)Nc1ccc(F)cn1 , would its reported half-life be below 2 h?
no (0)

* * *

Recorded half-life values for a group of compounds are listed next.
- ASSAY: Pharmacokinetic assay in Balb/C mice
- Assay type: in vivo
- ASSAY_CONDITIONS: male, mouse, po, p.o. 5 mg/kg, plasma, 0.5% CMC-Na (1% Tween 80), read-out: Half life t1/2 (converted)
- Method: Test Example 3. Pharmacokinetic Assay in Balb/C Mice Balb/C mice were used as test animals. The pharmacokinetic behavior of the compounds of Examples was studied in mouse body (plasma) by orally administration at a dose of 5 mg/kg. Male Balb/C mice (6 mice per group), purchased from Shanghai Jiesijie Laboratory Animal Co., LTD, with Certificate No.: SCXK (Shanghai) 2013-0006 N0.311620400001794. […] The main parameters of pharmacokinetics were calculated by WinNonlin 8.2.
Be sure to follow the number with its unit.

Use these answered entries as a reference point.
O=C(Cn1c(=O)c2ccc(C(F)(F)F)nc2n2nc(Br)cc12)Nc1ccc(F)cn1: 4.6 h
N#Cc1cc2n(CC(=O)Nc3ccc(F)cn3)c(=O)c3ccc(C(F)(F)F)nc3n2n1: 1.8 h
O=C(Cn1c(=O)c2ccc(C(F)(F)F)nc2n2nccc12)Nc1ccc(F)cn1: 1.6 h
CCc1cc2n(CC(=O)Nc3ccc(F)cn3)c(=O)c3ccc(C(F)(F)F)nc3n2n1: 1.4 h

Consider the compound CC(C)(C)c1cc2n(CC(=O)Nc3ccc(F)cn3)c(=O)c3ccc(C(F)(F)F)nc3n2n1 . State its measured half-life.
1.36 h

* * *

- ASSAY: Pharmacokinetic assay in rats
- Type: in vivo
- ASSAY_CONDITIONS: male, rat, po; SD rats, p.o. 5 mg/kg, plasma, 0.5% CMC-Na (1% Tween 80); read-out: Plasma concentration Cmax
READOUT_LABEL: Cmax (ng/mL)
Please reply with the bare figure in ng/mL and do not write the unit itself.

N#Cc1cnn2c3nc(C(F)(F)F)ccc3c(=O)n(CC(=O)Nc3ccc(F)cn3)c12: 2190

Consider the compound O=C(Cn1c(=O)c2ccc(C(F)(F)F)nc2n2nccc12)Nc1ccc(F)cn1 . State its measured Cmax.
1220

Consider the compound N#Cc1cc2n(CC(=O)Nc3ccc(F)cn3)c(=O)c3ccc(C(F)(F)F)nc3n2n1 . State its measured Cmax.
1880

Consider the compound CCc1cc2n(CC(=O)Nc3ccc(F)cn3)c(=O)c3ccc(C(F)(F)F)nc3n2n1 . State its measured Cmax.
904

Consider the compound O=C(Cn1c(=O)c2ccc(C(F)(F)F)nc2n2nc(Br)cc12)Nc1ccc(F)cn1 . State its measured Cmax.
1550
